Ref: PubChem BioAssay (NCI)

System: SF-268 CNS
Experiment: NCI-60 one-dose screen, 48 h
Conditions: 10 µM unless noted
The panel holds about 83,000 compounds, 20% with a hit somewhere; the sample as a whole holds those more often. The source made the active and inactive calls. The calls were made as follows: active = growth percent below 10; inactive = the rest.
Outcomes: true = active, false = inactive

| compound | label.class |
| --- | --- |
| COc1ccc(-c2nc3ccc(C(=O)NN4C(=O)c5ccc([N+](=O)[O-])cc5C4=O)cc3[nH]2)cc1 | false |
| CCCCSc1nc(NCCc2c[nH]c3ccccc23)c(C#N)c(-c2ccc(F)cc2)n1 | false |
| CC(C)CSc1nc(NCCc2c[nH]c3ccccc23)c(C#N)c(-c2ccccc2)n1 | false |
| COc1ccc(/C=C2\C(=O)Nc3ccc(Cl)cc32)cc1OCc1ccccn1 | false |
| COc1cc(OC)c2c3nc4cc(C)c(C)cc4nc3n(CCN(C)C)c2c1 | false |
| Cn1cc(-c2cc3nc(-c4cn(C)c5ncccc45)cc(N)n3n2)c2cc(Cl)ccc21 | true |
| O=C1CCCc2cc(OCC(=O)N3CCCCC3)ccc2N1 | false |
| O=C(Nc1ccc(C(F)(F)F)cc1)Nc1ccc2oc(=O)ccc2c1 | false |
| CCCCSc1nc(Nc2ccc(S(N)(=O)=O)cc2)c(C#N)c(-c2cc(OC)c(OC)c(OC)c2)n1 | false |
| COc1ccc(-c2nc3cc(C)ccc3n2CC(=O)N=Nc2c(O)[nH]c3ccc(Cl)cc23)cc1 | false |
| CC(=O)Oc1ccc(/C=C/C(=O)N[C@@H](Cc2ccccc2)C(O)C(=O)NCc2ccccc2)cc1OC(C)=O (some centres not stated) | false |
| CC1(C)CC[C@]2(C(=O)O)CC[C@]3(C)C(=CCC4[C@@]5(C)C[C@@H](O)[C@@H]6OC(c7ccco7)OC[C@@]6(C)C5CC[C@]43C)C2C1 (some centres not stated) | false |
| COc1ccc2[nH]c(O)c(N=NC(=O)COc3ccc(NC(=O)Nc4ccccc4)cc3)c2c1 | false |
| CCS(=O)(=O)N1CCCC(C(=O)Nc2nc3ccc(NC(=O)c4ccc(F)c(OC)c4F)cc3s2)C1 (configuration not stated) | false |
| O=C(COc1ccc(NC(=O)Nc2ccc(Cl)c(Cl)c2)cc1)N=Nc1c(O)[nH]c2ccccc12 | true |
| CNC(=O)c1cccc(NC(=O)c2ccc3c(c2)nnn3/C(C#N)=C/c2ccccn2)c1 | false |
| O=C(/C=C/Nc1ccc(Cl)cc1)c1ccc2c(c1)Nc1ccccc1S2 | false |
| O=S(=O)(Nc1cccc(-n2cnc3cc(-c4ccc(O)cc4)ccc32)c1)C1CC1 | false |
| Cc1cc(=O)oc2cc(OCCOc3ccc(/C=C/C(=O)Nc4ccccc4N)cc3)ccc12 | false |
| COc1ccc(-c2nnc3ccc(N/N=C/c4ccc(O)cc4)nn23)cc1 | false |
| Clc1ccc(-c2ccc(OCCCN3CCN(c4ccncc4)CC3)cc2)cc1 | false |
| CC(C)c1ccc2c(N)c(C(=O)Nc3ccc(C(F)(F)F)cn3)sc2n1 | false |
| C#C[C@]1(O)CC[C@H]2[C@@H]3CC=C4c5sc(-c6ccc([N+](=O)[O-])cc6)nc5CC[C@]4(C)[C@H]3CC[C@@]21C | false |
| Cn1cc(-c2cc(N)n3nc(-c4cn(C)c5ccccc45)cc3n2)c2cc(Br)ccc21 | true |
| Cn1cc(-c2nnc(N)nc2-c2c[nH]c3ccc(F)cc23)c2cccnc21 | false |
| CN(C)CCCNC(=O)c1cc(NC(=O)c2cc(NC(=O)c3ccc(/C=C/c4ccccc4)cc3)cn2C)cn1C | false |
| O=C(O)Cn1c(O)c(/C=C2/C=c3cc4c(cc3=NC2=O)OCCO4)sc1=S | false |
| COc1ccc(NC(=O)c2sc3nc(C(C)C)ccc3c2N)cc1 | false |
| CCOC(=O)c1ccc(Nc2nc(NN)nc(-c3ccc(F)cc3)c2C#N)cc1 | false |
| CCOC(=O)C1=C(N)N(c2ccccc2)C2=C(C(=O)CC(C)(C)C2)C1c1ccccc1Cl (configuration not stated) | false |
| COc1cc2oc(-c3cccc(C(=O)Nc4ccc(Cl)cc4)c3)cc(=O)c2c(OCCNC(=O)[C@H](CCC(=O)OC(C)(C)C)NC(=O)OC(C)(C)C)c1OC | false |
| COc1ccc2[nH]cc(-c3nnc(N)nc3-c3c[nH]c4ncc(Br)cc34)c2c1 | false |
| Cc1ccc2c(N)c(C(=O)Nc3ccc(OC(F)(F)F)cc3)sc2n1 | false |
| Cc1ccc(S(=O)(=O)c2nc(S(=O)(=O)c3ccc(C)cc3)c(Cl)s2)cc1 | false |
| CC(C)c1ccc2c(N)c(C(=O)Nc3cccc(C(F)(F)F)c3)sc2n1 | false |
| CN(C)c1nc(NCCNS(=O)(=O)c2ccc(C3=Nc4c(N)nc(N)nc4NC(c4ccccc4)C3)cc2)nc(Nc2ccc(F)cc2)n1 (configuration not stated) | false |
| O=C(NN1C(=O)/C(=C/C=C/c2ccc([N+](=O)[O-])o2)SC1=S)c1ccc(Cl)cc1 | true |
